# Test system: HIV-2(ROD)
# Method Description: Inhibition of HIV-2 (ROD)-induced cytopathicity (giant cell formation) in CEM cells
# Format: cell-based
# Test Parameters: read-out: EC50 HIV-2 (concentration required to inhibit HIV-induced giant cell formation by 50%); HIV-2, CEM cell cultures
# Procedure: A variety of glycopeptide antibiotic derivatives of vancomycin, eremomycin and teicoplanin including their aglycon derivatives were evaluated for their inhibitory activity against HIV-1 (IIIB) and HIV-2(ROD) in CEM cell cultures.

Molecule | Comparative Sign | EC50 [µM]
CCCCCCCCCC[N+](C)(C)CCCNCc1c(O)cc2c(c1O)-c1cc(ccc1O)C1NC(=O)C3NC(=O)C4NC(=O)C(Cc5ccc(cc5)Oc5cc3cc(c5OC3OC(C(=O)NCCCN(C)C)C(O)C(O)C3N)Oc3ccc(cc3Cl)C(O)C(NC1=O)C(=O)NC2C(=O)NCCCN(C)C)NC(=O)C(NC)c1ccc(O)c(c1)Oc1cc(O)c(Cl)c4c1 (stereo not shown) [Compound 14] | ≥ | 20
CNC(CC(C)C)C(=O)NC1C(=O)NC(CC(N)=O)C(=O)NC2C(=O)NC3C(=O)NC(C(=O)NC(C(=O)NCC45CC6CC(CC(C6)C4)C5)c4cc(O)cc(O)c4-c4cc3ccc4O)C(O)c3ccc(cc3)Oc3cc2cc(c3O)Oc2ccc(cc2Cl)C1O (stereo not shown) [Compound 99] | = | 7
CCCCCCCCCC[N+](C)(C)CCCNCc1c(O)cc2c(c1O)-c1cc(ccc1O)C1NC(=O)C3NC(=O)C4NC(=O)C(Cc5ccc(c(Cl)c5)Oc5cc3cc(c5O)Oc3ccc(cc3Cl)C(O)C(NC1=O)C(=O)NC2C(=O)O)NC(=O)C(N)c1ccc(O)c(c1)Oc1cc(O)cc4c1 (stereo not shown) [Compound 33] | = | 7.5
CCCCCCCCCCNCc1c(O)cc2c(c1O)-c1cc(ccc1O)C1NC(=O)C3NC(=O)C4NC(=O)C(Cc5ccc(c(Cl)c5)Oc5cc3cc(c5O)Oc3ccc(cc3Cl)C(O)C(NC1=O)C(=O)NC2C(=O)NC)NC(=O)C(NC(=O)C(N)CCCCN)c1ccc(O)c(c1)Oc1cc(O)cc4c1 (stereo not shown) [Compound 24] | = | 6

----------
# Test system: HEL cells
# Test Parameters: read-out: CC50 (HEL); HEL cells; anti-VZV table
// reported CC50 per item
Value Type: CC50

Molecule | Value Type | Result
CCCCc1ccc(CNCc2c(O)cc3c(c2O)-c2cc(ccc2O)C2NC(=O)C4NC(=O)C5NC(=O)C(Cc6ccc(c(Cl)c6)Oc6cc4cc(c6O)Oc4ccc(cc4Cl)C(O)C(NC2=O)C(=O)NC3C(=O)O)NC(=O)C(N)c2ccc(O)c(c2)Oc2cc(O)cc5c2)cc1 (stereo not shown) | CC50 | > 50 µM
CNC(CC(C)C)C(=O)NC1C(=O)NC(CC(N)=O)C(=O)NC2C(=O)NC3C(=O)NC(C(=O)NC(C(=O)O)c4cc(O)cc(O)c4-c4cc3ccc4O)C(O)c3ccc(c(Cl)c3)Oc3cc2cc(c3OC2OC(CO)C(O)C(O)C2OC2CC(C)(NCc3ccc(-c4ccc(Cl)cc4)cc3)C(O)C(C)O2)Oc2ccc(cc2Cl)C1O (stereo not shown) | CC50 | > 50 µM
CN(Cc1ccc(-c2ccccc2)cc1)Cc1c(O)cc2c(c1O)-c1cc(ccc1O)C1NC(=O)C3NC(=O)C4NC(=O)C(Cc5ccc(c(Cl)c5)Oc5cc3cc(c5O)Oc3ccc(cc3Cl)C(O)C(NC1=O)C(=O)NC2C(=O)O)NC(=O)C(N)c1ccc(O)c(c1)Oc1cc(O)cc4c1 (stereo not shown) | CC50 | > 50 µM
CCCCCCCCCCN1CCN(C(=O)C2NC(=O)C3NC(=O)C(NC(=O)C4NC(=O)C5NC(=O)C(Cc6ccc(c(Cl)c6)Oc6cc4cc(c6O)Oc4ccc(cc4Cl)C3O)NC(=O)C(N)c3ccc(O)c(c3)Oc3cc(O)cc5c3)c3ccc(O)c(c3)-c3c(O)cc(O)cc32)CC1 (stereo not shown) | CC50 | > 50 µM
CC1(C)SC2C(NC(=O)C3NC(=O)C4NC(=O)C(NC(=O)C5NC(=O)C6NC(=O)C(Cc7ccc(c(Cl)c7)Oc7cc5cc(c7O)Oc5ccc(cc5Cl)C4O)NC(=O)C(N)c4ccc(O)c(c4)Oc4cc(O)cc6c4)c4ccc(O)c(c4)-c4c(O)cc(O)cc43)C(=O)N2C1C(=O)O (stereo not shown) | CC50 | > 50 µM
CNC(=O)C1NC(=O)C2NC(=O)C(NC(=O)C3NC(=O)C4NC(=O)C(Cc5ccc(c(Cl)c5)Oc5cc3cc(c5O)Oc3ccc(cc3Cl)C2O)NC(=O)C(N)c2ccc(O)c(c2)Oc2cc(O)cc4c2)c2ccc(O)c(c2)-c2c(O)cc(O)cc21 (stereo not shown) | CC50 | > 200 µM
NCCCCCCNC(=O)C1NC(=O)C2NC(=O)C(NC(=O)C3NC(=O)C4NC(=O)C(Cc5ccc(c(Cl)c5)Oc5cc3cc(c5O)Oc3ccc(cc3Cl)C2O)NC(=O)C(N)c2ccc(O)c(c2)Oc2cc(O)cc4c2)c2ccc(O)c(c2)-c2c(O)cc(O)cc21 (stereo not shown) | CC50 | 190 µM
